What follows is literature data on IC50 for PAK3 (Homo sapiens, UniProt O75914).

Exercise: Item under review: CCN1CCC(c2ccc(Nc3ncc4cc(-c5ccc(-c6ccnc(C)c6)cc5Cl)c(=O)n(CC)c4n3)cc2F)CC1 . Reported IC50?
Solution: < 50 nM

Exercise: Please give the result for CCN1CCC(c2ccc(Nc3ncc4cc(-c5ccc(-c6ccc(C)nc6F)cc5Cl)c(=O)n(CC)c4n3)cc2)CC1 too.
Solution: 50 to 500 nM

Exercise: Please give the result for CN1CCN(c2ccc(Nc3ncc4ccc(=O)n(Cc5occc5C5CC5)c4n3)cc2)CC1 too.
Solution: 500 to 5000 nM

Exercise: Please give the result for CCn1c(=O)c(-c2ccc(-c3cncs3)cc2Cl)cc2cnc(Nc3ccc(N4CCNCC4)cc3)nc21 too.
Solution: < 50 nM

Exercise: Please give the result for CC(=O)Nc1ccc(-c2ccc(Cl)c(-c3cc4cnc(Nc5ccc(C6CCN(C)CC6)cc5)nc4n(C)c3=O)c2)cn1 too.
Solution: > 5000 nM

Exercise: Please give the result for CN1CCN(c2ccc(Nc3ncc4ccc(=O)n(Cc5ccccc5-c5cc(C(F)(F)F)nn5C)c4n3)cc2)CC1 too.
Solution: 1000 to 10000 nM

Exercise: Please give the result for CCn1c(=O)c(-c2ccc(-c3ccc(F)nc3C)cc2Cl)cc2cnc(Nc3ccc(C4CCNCC4)c(F)c3)nc21 too.
Solution: 50 to 500 nM

Exercise: Please give the result for CCn1c(=O)c(-c2ccc(-c3nccnc3C)cc2Cl)cc2cnc(NCCOC)nc21 too.
Solution: 500 to 5000 nM

Exercise: Please give the result for CCn1c(=O)c(-c2ccc(-c3cnc(C)cn3)cc2Cl)cc2cnc(Nc3ccc(C4CCN(C)CC4)cc3)nc21 too.
Solution: < 50 nM

Exercise: Please give the result for COc1cccc2c1C(n1c(=O)ccc3cnc(Nc4ccc(N5CCN(C)CC5)cc4)nc31)CC2 (stereo not shown) too.
Solution: > 10000 nM

Exercise: Please give the result for CCn1c(=O)c(-c2ccc(-c3cncnc3)cc2)cc2cnc(Nc3ccc(N4CCN(C)CC4)cc3)nc21 too.
Solution: 500 to 5000 nM

Exercise: Please give the result for CCn1c(=O)c(-c2ccc(-c3cccnc3C)cc2Cl)cc2cnc(Nc3ccc(C4=CCNCC4)cc3)nc21 too.
Solution: < 50 nM

Exercise: Please give the result for Cc1ncccc1-c1ccc(-c2cc3cnc(Nc4ccc(C5CCN(C)CC5)cc4)nc3n(C)c2=O)c(Cl)c1 too.
Solution: 50 to 500 nM

Exercise: Please give the result for CCn1c(=O)c(-c2ccc(-c3noc(C)n3)cn2)cc2cnc(Nc3ccc(C4CCN(C)CC4)cc3)nc21 too.
Solution: > 5000 nM

Exercise: Please give the result for CCN1CCC(c2ccc(Nc3ncc4cc(-c5ccc(-c6cnc(C)s6)cc5Cl)c(=O)n(CC)c4n3)cc2)CC1 too.
Solution: 50 to 500 nM

Exercise: Please give the result for CCn1c(=O)c(-c2ccc(-c3nccnc3C)cc2Cl)cc2cnc(NCCCO)nc21 too.
Solution: 50 to 500 nM
